B1: library; numbered along this chain (parent)
chain: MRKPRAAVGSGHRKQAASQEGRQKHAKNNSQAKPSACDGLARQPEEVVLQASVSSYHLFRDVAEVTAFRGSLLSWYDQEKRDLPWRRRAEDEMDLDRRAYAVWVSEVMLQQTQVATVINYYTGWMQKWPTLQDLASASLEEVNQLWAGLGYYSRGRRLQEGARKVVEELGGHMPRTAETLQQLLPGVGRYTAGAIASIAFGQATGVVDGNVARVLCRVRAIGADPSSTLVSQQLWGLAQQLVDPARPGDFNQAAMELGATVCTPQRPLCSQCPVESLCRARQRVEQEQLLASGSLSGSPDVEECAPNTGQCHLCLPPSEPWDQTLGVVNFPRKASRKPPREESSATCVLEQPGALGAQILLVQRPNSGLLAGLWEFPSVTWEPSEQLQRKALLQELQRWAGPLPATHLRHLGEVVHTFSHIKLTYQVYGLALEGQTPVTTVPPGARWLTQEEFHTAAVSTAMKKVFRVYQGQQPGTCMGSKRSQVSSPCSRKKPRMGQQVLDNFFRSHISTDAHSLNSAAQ

Variants of: B1
test method notes: 8OG:A repair function score (normalized; synonymous = 0, nonsense = -1) (normalized log-likelihood score); higher = more repair activity (WT-like);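 further: cells sorted at 72 h after reporter transfection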
study conditions: with 8OG:A DNA repair reporter (GFP) in HEK-293 MUTYH KO cells
# if value of 8OG:A repair function score reaches -0.2, tag fulfilled; if it stays below, tag not fulfilled

Q: Does the reported 8OG:A repair function score for A115H fall at or above the -0.2 mark?
Result: fulfilled

Q: Does the reported 8OG:A repair function score for L95I fall at or above the -0.2 mark?
Result: fulfilled

Q: Does the reported 8OG:A repair function score for A89R fall at or above the -0.2 mark?
Result: fulfilled

Q: Does the reported 8OG:A repair function score for A196T fall at or above the -0.2 mark?
Result: not fulfilled

Q: Does the reported 8OG:A repair function score for S367G fall at or above the -0.2 mark?
Result: fulfilled

Q: Does the reported 8OG:A repair function score for S384M fall at or above the -0.2 mark?
Result: not fulfilled

Q: Does the reported 8OG:A repair function score for A345F fall at or above the -0.2 mark?
Result: fulfilled

Q: Does the reported 8OG:A repair function score for P247I fall at or above the -0.2 mark?
Result: not fulfilled

Q: Does the reported 8OG:A repair function score for A238I fall at or above the -0.2 mark?
Result: not fulfilled

Q: Does the reported 8OG:A repair function score for R495M fall at or above the -0.2 mark?
Result: fulfilled

Q: Does the reported 8OG:A repair function score for P273F fall at or above the -0.2 mark?
Result: not fulfilled

Q: Does the reported 8OG:A repair function score for T260W fall at or above the -0.2 mark?
Result: not fulfilled

Q: Does the reported 8OG:A repair function score for P185I fall at or above the -0.2 mark?
Result: not fulfilled

Q: Does the reported 8OG:A repair function score for T511C fall at or above the -0.2 mark?
Result: fulfilled

Q: Does the reported 8OG:A repair function score for T66R fall at or above the -0.2 mark?
Result: fulfilled

Q: Does the reported 8OG:A repair function score for G236Y fall at or above the -0.2 mark?
Result: fulfilled

Q: Does the reported 8OG:A repair function score for L183V fall at or above the -0.2 mark?
Result: fulfilled

Q: Does the reported 8OG:A repair function score for F418Q fall at or above the -0.2 mark?
Result: not fulfilled

Q: Does the reported 8OG:A repair function score for S515L fall at or above the -0.2 mark?
Result: fulfilled

Q: Does the reported 8OG:A repair function score for V348D fall at or above the -0.2 mark?
Result: not fulfilled

Q: Does the reported 8OG:A repair function score for E302G fall at or above the -0.2 mark?
Result: not fulfilled

Q: Does the reported 8OG:A repair function score for E168A fall at or above the -0.2 mark?
Result: fulfilled
